- ASSAY SYSTEM: CYP3A4 (Homo sapiens, UniProt P08684)
- Sequence (P08684 whole entry): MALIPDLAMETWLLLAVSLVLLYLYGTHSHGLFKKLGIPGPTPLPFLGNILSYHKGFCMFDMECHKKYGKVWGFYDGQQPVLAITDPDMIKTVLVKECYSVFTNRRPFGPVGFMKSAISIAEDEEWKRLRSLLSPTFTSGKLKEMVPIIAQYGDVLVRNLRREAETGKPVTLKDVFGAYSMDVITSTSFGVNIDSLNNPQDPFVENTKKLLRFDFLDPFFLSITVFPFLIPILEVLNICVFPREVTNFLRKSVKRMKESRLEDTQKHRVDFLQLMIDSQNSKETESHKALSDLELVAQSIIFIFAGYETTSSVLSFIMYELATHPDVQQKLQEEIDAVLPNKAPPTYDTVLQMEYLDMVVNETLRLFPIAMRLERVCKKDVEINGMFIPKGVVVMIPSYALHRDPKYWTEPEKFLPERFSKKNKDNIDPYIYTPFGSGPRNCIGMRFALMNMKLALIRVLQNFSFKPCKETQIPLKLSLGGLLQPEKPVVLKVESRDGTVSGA
- TEST NAME: Drug metabolism in human liver microsomes assessed as CYP3A4-mediated oxidative metabolism by measuring clearance rate
- Format: ADME
- CONDITION SUMMARY: liver microsomes, read-out: CLH
PARAMETER: microsomal CLint (µL/min/mg)

As a guide, the following entries are already answered.
| COMPOUND | READING UNIT | microsomal CLint |
| --- | --- | --- |
| C[C@@H](c1nc2ccc(N3CCC[C@@H](C(=O)N4CCCC4)C3)nc2[nH]1)n1cc(Cl)cn1 | µL/min/mg | 27.5 |
| C[C@H](c1nc2ccc(N3CCC[C@@H](C(=O)N4CCCC4)C3)nc2[nH]1)n1cc(Cl)cn1 | µL/min/mg | 26 |
| CS(=O)(=O)O.O=C([C@@H]1CCCN(c2ccc3nc(C4(n5cc(Cl)cn5)CC4)[nH]c3n2)C1)N1CCCC1 | µL/min/mg | 23.7 |

(A) CC(c1nc2cnc(N3CCC[C@@H](C(=O)N4CCCC4)C3)nc2[nH]1)n1cc(Cl)cn1 (single isomer, unassigned; diastereomer 2)
(B) CC(C)(c1nc2ccc(N3CCC[C@@H](C(=O)N4CCCC4)C3)nc2[nH]1)n1cc(Cl)cn1
stdin: Lowest microsomal CLint? choose A or B Return value: the label identifying the chosen record.
stdout: A
